- MEASUREMENT PROTOCOL: In vivo pharmacokinetics study of carfilzomib formulations, plasma carfilzomib by LC-MS
- MEASUREMENT CONTEXT: BALB/c nude, mouse, mice, intravenous via tail vein, 5.0 mg/kg
PARAMETER: AUC(0-t)

# input compound: CC(C)C[C@H](NC(=O)[C@H](CCc1ccccc1)NC(=O)CN1CCOCC1)C(=O)N[C@@H](Cc1ccccc1)C(=O)N[C@@H](CC(C)C)C(=O)[C@@]1(C)CO1 [Free carfilzomib, carfilzomib] ; wanted: its AUC(0-t)
486 ng·h/mL

* * *

- MEASUREMENT PROTOCOL: In vivo pharmacokinetics study of carfilzomib formulations, plasma carfilzomib by LC-MS
- MEASUREMENT CONTEXT: BALB/c nude, mouse, mice, intravenous via tail vein, 5.0 mg/kg, read-out: Vdss
PARAMETER: Vd (L/kg)
API: value field is a number in L/kg; no unit string.

# input molecule: CC(C)C[C@H](NC(=O)[C@H](CCc1ccccc1)NC(=O)CN1CCOCC1)C(=O)N[C@@H](Cc1ccccc1)C(=O)N[C@@H](CC(C)C)C(=O)[C@@]1(C)CO1 [Free carfilzomib, carfilzomib] ; wanted: its Vd
5.36
